The reader will find reported GI50 values listed item by item below.
# Tested on: NCI/ADR-RES
# protocol details: NCI tumour cell line growth inhibition, 48 h
Calls of active or inactive are those of the source. Rule as the data show it: active = GI50 up to about 1.1 µM and inactive = higher. Non-standard residues stand in square brackets, D forms with d. Residues, ends and D or L forms follow the SMILES beside them. ξ: configuration not given here. Pen = CC(C)(S)[C@H](N)C(=O)O; ξL = CC(C)CC(N)C(=O)O

compound | GI50
Cc1cn(CCCCCOC(=O)NC(CCCNC(=N)N)C(=O)O)c(=O)[nH]c1=O (configuration not stated) | 23.1 µM (inactive)
C=CCc1cccc2cc(C(=O)Nc3ccc(C)cc3)c(=N)oc12 | > 100 µM (inactive)
CN(CCn1cnc2c1c(=O)n(C)c(=O)n2C)C1CCCCC1 | > 100 µM (inactive)
C=CC[C@H]1[C@@H](O[Si](C)(C)C(C)(C)C)[C@H](n2ccc(=O)[nH]c2=O)O[C@@H]1CO[Si](C)(C)C(C)(C)C | 2.15 µM (inactive)
COc1ccc(C(=C2C(=O)N(c3ccccc3)C(=O)C2=C(C)C)c2ccc(OC)cc2)cc1 | 2.57 µM (inactive)
Cc1cc(=O)n2nc(CCl)sc2n1 | 20.7 µM (inactive)
O=C(/C=C/c1ccc(O)cc1)NCCc1ccc(O)cc1 | 3.62 µM (inactive)
CC12CCC(=O)[C@@]1(C)CCCC2O (some centres not stated) | > 100 µM (inactive)
O=c1cc(NNc2cccc(Cl)c2)[nH]c(=O)[nH]1 | > 100 µM (inactive)
COc1ccc(C2(CC(C)C)CCNC2)cc1OC (configuration not stated) | > 100 µM (inactive)
CC(C)(C)OC(=O)NC1CC=CCC1NC(=O)OC(C)(C)C (configuration not stated) | > 100 µM (inactive)
CN(C)c1ccc(/C=C2\C[C@H]3[C@@H]4CCc5cc(OCCN6CCCC6)ccc5[C@H]4CC[C@]3(C)C2=O)cc1 | 1.91 µM (inactive)
Cn1cnc(N)c(N=O)c1=O | > 10 µM (inactive)
C=CCCCCOC1C=CC(O)C(CO)O1 (configuration not stated) | > 100 µM (inactive)
CSCC[C@H](NC(=O)C(CC(C)C)NC(=O)[C@H](Cc1c[nH]cn1)NC(=O)CNC(=O)[C@@H](NC(=O)[C@@H](C)NC(=O)[C@H](Cc1c[nH]c2ccccc12)NC(=O)[C@H](CCC(N)=O)NC(=O)[C@@H](N)CC(N)=O)C(C)(C)SC)C(N)=O (some centres not stated) (H-NQW[dA][Pen](Me)GH[ξL]M-NH2) | > 100 µM (inactive)
CN1CCOC1(C)c1ccccc1 (configuration not stated) | > 100 µM (inactive)
C[C@]12CC[C@@H]3c4cc(Br)c(O)c(Br)c4CC[C@H]3[C@@H]1CCC2=O | 12.5 µM (inactive)
